Provenance of the data: patent US10124004B2

System: CDK4/cyclin D3 (Homo sapiens, UniProt P11802)
Construct: purchased Carna Biosciences, Inc. QS S Assist CDK4/Cyclin D3_FP Kit
Sequence (P11802 whole entry): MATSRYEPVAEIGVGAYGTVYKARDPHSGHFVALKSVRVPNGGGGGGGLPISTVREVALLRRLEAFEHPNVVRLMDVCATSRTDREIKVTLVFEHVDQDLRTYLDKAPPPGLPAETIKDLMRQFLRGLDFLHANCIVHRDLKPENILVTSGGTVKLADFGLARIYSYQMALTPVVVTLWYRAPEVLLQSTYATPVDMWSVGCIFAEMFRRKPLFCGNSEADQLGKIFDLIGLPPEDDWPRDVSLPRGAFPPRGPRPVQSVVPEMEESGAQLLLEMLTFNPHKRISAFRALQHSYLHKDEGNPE
Sequence (P30281 whole entry partner): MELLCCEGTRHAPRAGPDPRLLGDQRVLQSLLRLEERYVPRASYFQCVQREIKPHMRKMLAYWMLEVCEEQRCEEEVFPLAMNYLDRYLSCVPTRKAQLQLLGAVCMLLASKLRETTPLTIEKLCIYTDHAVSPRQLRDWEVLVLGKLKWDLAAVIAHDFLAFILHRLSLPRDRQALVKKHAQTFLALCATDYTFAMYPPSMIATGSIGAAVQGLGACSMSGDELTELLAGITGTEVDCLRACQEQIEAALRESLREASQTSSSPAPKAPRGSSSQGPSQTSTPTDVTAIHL
Experiment description: Human CDK4/cyclin D3 inhibitory activity (QS S Assist CDK4/Cyclin D3_FP Kit, IMAP fluorescence polarization)
Assay type: biochemical
Test conditions: 50% inhibitory concentration against CDK4/cyclin D3, given as class symbol
Value kind: IC50

CC(C)Nc1nc([C@@H](C)F)cc2cnc(Nc3ccc(N4CCNCC4)nn3)nc12: 10 to 100 nM
c1cc2c(nc1Nc1ncc3cc(C4CCOC4)nc(N[C@H]4CCCOC4)c3n1)CCNC2 (single isomer, unassigned) [Compound 942]: < 10 nM
CCCNc1nc([C@@H](C)O)cc2cnc(Nc3ccc(CN4CCN(C[C@H](C)O)CC4)cn3)nc12: < 10 nM

Below: the item to evaluate.
Check the records and state IC50 for C[C@@H](O)c1cc2cnc(Nc3ccc(CN4CCC[C@@H](O)C4)cn3)nc2c(N[C@H]2CC[C@H](O)CC2)n1
< 10 nM
